For each record, write down the corresponding inhibition at 10 µg/mL.
experimental.target: lipoxygenase (Homo sapiens)
Construct: endogenous in cells; host or cells: human PMN leucocytes isolated from heparinized blood
Sequence (P09917 1-674): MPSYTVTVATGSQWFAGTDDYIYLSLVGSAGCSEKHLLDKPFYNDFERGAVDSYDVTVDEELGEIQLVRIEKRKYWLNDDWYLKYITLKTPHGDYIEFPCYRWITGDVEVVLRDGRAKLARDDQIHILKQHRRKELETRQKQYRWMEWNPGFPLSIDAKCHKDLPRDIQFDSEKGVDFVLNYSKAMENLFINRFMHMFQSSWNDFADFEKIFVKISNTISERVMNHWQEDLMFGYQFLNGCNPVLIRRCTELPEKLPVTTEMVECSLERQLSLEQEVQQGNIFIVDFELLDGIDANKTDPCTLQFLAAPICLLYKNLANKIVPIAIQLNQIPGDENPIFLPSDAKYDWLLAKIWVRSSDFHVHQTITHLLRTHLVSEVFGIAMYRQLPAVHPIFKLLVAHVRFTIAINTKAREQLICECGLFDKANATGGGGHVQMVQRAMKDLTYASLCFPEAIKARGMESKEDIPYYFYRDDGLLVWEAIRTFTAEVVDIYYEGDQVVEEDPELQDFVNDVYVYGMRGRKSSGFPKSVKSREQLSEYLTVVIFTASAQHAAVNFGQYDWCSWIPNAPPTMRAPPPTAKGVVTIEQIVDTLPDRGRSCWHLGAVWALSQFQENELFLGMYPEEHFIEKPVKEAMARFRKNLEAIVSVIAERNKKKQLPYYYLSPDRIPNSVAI
run.description: Inhibition of LTB4 biosynthesis (lipoxygenase-inhibiting action) in human PMN leucocytes stimulated with ionophor A 23187
Format: cell-based
condition.label: 0.25 h; concentration 10^-5 g/ml
One number for each entry, in %.

Worked cases, answers included:
Req: Give lipoxygenase (Homo sapiens) inhibition at 10 µg/mL for O=C1CC(c2ccccc2)=NN1CCCc1ccccc1
Resp: 100

Req: Give lipoxygenase (Homo sapiens) inhibition at 10 µg/mL for CC1=NN(CCOc2cccc3ccccc23)C(=O)C1
Resp: 100

Req: Give lipoxygenase (Homo sapiens) inhibition at 10 µg/mL for COCC1=NN(CCOc2ccc3ccccc3c2)C(=O)C1
Resp: 93

Next up:
Req: Give lipoxygenase (Homo sapiens) inhibition at 10 µg/mL for CC(C)CC1=NN(CCOc2ccc3ccccc3c2)C(=O)C1
Resp: 100

###

experimental.target: lipoxygenase (Homo sapiens, UniProt P09917)
Construct: endogenous in cells; host or cells: human PMN leucocytes isolated from heparinized blood
Sequence (P09917 1-674): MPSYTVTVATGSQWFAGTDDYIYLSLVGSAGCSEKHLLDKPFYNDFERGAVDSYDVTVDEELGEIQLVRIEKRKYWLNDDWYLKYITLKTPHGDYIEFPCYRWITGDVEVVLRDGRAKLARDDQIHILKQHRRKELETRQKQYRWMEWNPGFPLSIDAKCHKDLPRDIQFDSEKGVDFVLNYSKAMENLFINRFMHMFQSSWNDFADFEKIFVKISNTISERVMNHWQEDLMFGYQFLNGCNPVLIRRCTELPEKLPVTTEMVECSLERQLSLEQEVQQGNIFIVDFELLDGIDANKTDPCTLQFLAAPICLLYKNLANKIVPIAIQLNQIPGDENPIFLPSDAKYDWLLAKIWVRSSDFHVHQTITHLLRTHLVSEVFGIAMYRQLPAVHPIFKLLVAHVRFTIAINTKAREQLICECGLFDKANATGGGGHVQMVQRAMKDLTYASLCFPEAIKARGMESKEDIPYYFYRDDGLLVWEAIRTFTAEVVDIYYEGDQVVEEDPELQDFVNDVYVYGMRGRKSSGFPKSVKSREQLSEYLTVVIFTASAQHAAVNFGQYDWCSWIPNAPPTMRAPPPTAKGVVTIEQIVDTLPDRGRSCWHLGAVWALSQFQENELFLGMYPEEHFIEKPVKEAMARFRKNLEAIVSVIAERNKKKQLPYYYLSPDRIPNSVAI
run.description: Inhibition of LTB4 biosynthesis (lipoxygenase-inhibiting action) in human PMN leucocytes stimulated with ionophor A 23187
Type: cell-based
condition.label: 0.25 h; concentration 10^-5 g/ml
For each record, write down the corresponding inhibition at 10 µg/mL.
One number for each entry, in %.

Worked cases, answers included:
Req: Item under review: CCCCCCC1C(=O)N(CCOc2ccc3ccccc3c2)N=C1C (centres unmarked) . Reported inhibition at 10 µg/mL?
Resp: 100

Req: Item under review: Cc1cc(OC(=O)c2ccc3ccccc3c2)n(C(C)c2ccc(Cl)c(Cl)c2)n1 (centres unmarked) . Reported inhibition at 10 µg/mL?
Resp: 46

Req: Item under review: Cc1cc(OC(=O)c2ccc(Cl)cc2)n(C(C)c2ccc(Cl)c(Cl)c2)n1 (centres unmarked) . Reported inhibition at 10 µg/mL?
Resp: 80

Req: Item under review: CC1=NN(CCOc2ccccc2-c2ccccc2)C(=O)C1 [drawing 18] . Reported inhibition at 10 µg/mL?
Resp: 100

***
Req: Item under review: CC1=NN(CCc2cccc3ccccc23)C(=O)C1 [drawing 28] . Reported inhibition at 10 µg/mL?
Resp: 100

###

experimental.target: lipoxygenase (Homo sapiens, UniProt P09917)
Construct: endogenous in cells; host or cells: human PMN leucocytes isolated from heparinized blood
run.description: Inhibition of LTB4 biosynthesis (lipoxygenase-inhibiting action) in human PMN leucocytes stimulated with ionophor A 23187
Type: cell-based
condition.label: 0.25 h; concentration 10^-5 g/ml
measurement.label: inhibition at 10 µg/mL (%)
Answers are plain numbers, in %.

Req: Item under review: O=C1CC(CO)=NN1CCOc1ccc2ccccc2c1 . Reported inhibition at 10 µg/mL?
Resp: 80

Req: Item under review: CCC1=NN(CCOc2ccc3c(Br)cccc3c2)C(=O)C1C (centres unmarked) . Reported inhibition at 10 µg/mL?
Resp: 100

Req: Item under review: CC1=NN(CCOc2ccc(Cl)c(C)c2)C(=O)C1 . Reported inhibition at 10 µg/mL?
Resp: 100

Req: Item under review: CCCCC1C(=O)N(CCOc2ccc3c(Br)cccc3c2)N=C1C (centres unmarked) . Reported inhibition at 10 µg/mL?
Resp: 100

Req: Item under review: CC1=NN(CCOc2ccc3ccccc3c2)C(=O)C1C (centres unmarked) [drawing 22] . Reported inhibition at 10 µg/mL?
Resp: 100

Req: Item under review: CC1=NN(CCOc2ccc3ccccc3c2)C(=O)C1 [drawing 34, reference compound] . Reported inhibition at 10 µg/mL?
Resp: 100

Need inhibition at 10 µg/mL for each of these molecules.
1. O=C1CC(C2CCCCC2)=NN1CCCc1ccccc1
2. CCC1C(=O)N(CCOc2ccc3c(Br)cccc3c2)N=C1C (centres unmarked) [drawing 20]
3. CC(=O)OCC1=NN(CCOc2ccc3ccccc3c2)C(=O)C1
4. CC1=NN(C(C)c2ccc(Cl)c(Cl)c2)C(=O)C1Cc1ccccc1 (centres unmarked)
5. CC1=NN(CCOc2ccc3ccccc3c2)C(=O)C1C1C(=O)N(CCOc2ccc3ccccc3c2)N=C1C (centres unmarked)

Resp:
1: 100; 2: 100; 3: 82; 4: 100; 5: 50

###

experimental.target: lipoxygenase (Homo sapiens)
Construct: endogenous in cells; host or cells: human PMN leucocytes isolated from heparinized blood
run.description: Inhibition of LTB4 biosynthesis (lipoxygenase-inhibiting action) in human PMN leucocytes stimulated with ionophor A 23187
Format: cell-based
condition.label: 0.25 h; concentration 10^-6 g/ml
measurement.label: inhibition at 1 µg/mL (%)
Give bare numbers, in %.

Req: Item under review: CC1=NN(CCc2cccc3ccccc23)C(=O)C1 [drawing 28] . Reported inhibition at 1 µg/mL?
Resp: 58

Req: Item under review: O=C1CC(C2CCCCC2)=NN1CCCc1ccccc1 . Reported inhibition at 1 µg/mL?
Resp: 71

Req: Item under review: CCC1C(=O)N(CCOc2ccc3c(Br)cccc3c2)N=C1C (stereo not drawn) [drawing 20] . Reported inhibition at 1 µg/mL?
Resp: 100

Req: Item under review: CC1=NN(CCOc2ccccc2-c2ccccc2)C(=O)C1 [drawing 18] . Reported inhibition at 1 µg/mL?
Resp: 75

Req: Item under review: O=C1CC(c2ccccc2)=NN1CCCc1ccccc1 . Reported inhibition at 1 µg/mL?
Resp: 81

Need inhibition at 1 µg/mL for each of these compounds.
1. CC1=NN(CCOc2ccc3ccccc3c2)C(=O)C1C (stereo not drawn) [drawing 22]
2. COCC1=NN(CCOc2ccc3ccccc3c2)C(=O)C1
3. CC(=O)OCC1=NN(CCOc2ccc3ccccc3c2)C(=O)C1
4. CCCCC1C(=O)N(CCOc2ccc3c(Br)cccc3c2)N=C1C (stereo not drawn)
5. CC(C)CC1=NN(CCOc2ccc3ccccc3c2)C(=O)C1
6. CC1=NN(CCOc2ccc(Cl)c(C)c2)C(=O)C1

Resp:
1. 83
2. 40
3. 36
4. 68
5. 100
6. 43

###

experimental.target: lipoxygenase (Homo sapiens, UniProt P09917)
Construct: endogenous in cells; host or cells: human PMN leucocytes isolated from heparinized blood
Sequence (P09917 1-674): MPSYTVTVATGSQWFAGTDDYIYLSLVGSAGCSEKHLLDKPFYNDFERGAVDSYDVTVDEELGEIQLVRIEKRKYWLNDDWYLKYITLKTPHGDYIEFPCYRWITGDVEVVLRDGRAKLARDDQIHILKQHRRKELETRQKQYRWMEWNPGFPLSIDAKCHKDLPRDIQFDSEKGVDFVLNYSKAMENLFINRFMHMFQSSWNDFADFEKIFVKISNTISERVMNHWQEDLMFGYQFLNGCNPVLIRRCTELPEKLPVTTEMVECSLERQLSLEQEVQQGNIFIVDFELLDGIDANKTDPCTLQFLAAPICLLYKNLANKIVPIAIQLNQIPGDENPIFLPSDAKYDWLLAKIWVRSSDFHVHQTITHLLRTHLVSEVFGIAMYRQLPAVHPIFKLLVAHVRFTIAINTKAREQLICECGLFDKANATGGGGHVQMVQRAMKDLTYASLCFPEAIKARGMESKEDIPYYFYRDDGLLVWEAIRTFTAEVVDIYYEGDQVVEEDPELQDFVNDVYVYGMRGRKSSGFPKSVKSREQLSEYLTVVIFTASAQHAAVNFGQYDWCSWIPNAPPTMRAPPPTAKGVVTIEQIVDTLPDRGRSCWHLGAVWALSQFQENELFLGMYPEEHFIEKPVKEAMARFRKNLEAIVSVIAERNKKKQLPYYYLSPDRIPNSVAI
run.description: Inhibition of LTB4 biosynthesis (lipoxygenase-inhibiting action) in human PMN leucocytes stimulated with ionophor A 23187
Type: cell-based
condition.label: 0.25 h; concentration 10^-6 g/ml
For each record, write down the corresponding inhibition at 1 µg/mL.
Numbers only, in %.

Worked cases, answers included:
Req: Item under review: CCCCCCC1C(=O)N(CCOc2ccc3ccccc3c2)N=C1C (stereo not shown) . Reported inhibition at 1 µg/mL?
Resp: 93

Req: Item under review: CC1=NN(CCOc2ccc3ccccc3c2)C(=O)C1 [drawing 34, reference compound] . Reported inhibition at 1 µg/mL?
Resp: 58

Req: Item under review: CC1=NN(CCOc2cccc3ccccc23)C(=O)C1 . Reported inhibition at 1 µg/mL?
Resp: 62

Next up:
Req: Item under review: CCC1=NN(CCOc2ccc3c(Br)cccc3c2)C(=O)C1C (stereo not shown) . Reported inhibition at 1 µg/mL?
Resp: 100

These measurements were taken from patent US4670460A.
